- Test system: CAL-12T
- test.method.notes: relative viability (nuclei count vs DMSO), 5 days (fraction); higher = more cells survive
- condition.label: first compound 1.265 µM
reported.property: relative viability

Identify measured relative viability corresponding to Cc1sc2c(c1C)C(c1ccc(Cl)cc1)=N[C@@H](CC(=O)OC(C)(C)C)c1nnc(C)n1-2 [JQ1] + CC(=O)c1c(C)c2cnc(Nc3ccc(N4CCNCC4)cn3)nc2n(C2CCCC2)c1=O [Palbociclib] (partner 0.5 µM)
0.114

Identify measured relative viability corresponding to Cc1sc2c(c1C)C(c1ccc(Cl)cc1)=N[C@@H](CC(=O)OC(C)(C)C)c1nnc(C)n1-2 [JQ1] + NC(=O)Nc1cc(-c2cccc(F)c2)sc1C(=O)N[C@H]1CCCNC1 [AZD7762] (partner 0.2 µM)
0.365

Identify measured relative viability corresponding to Cc1sc2c(c1C)C(c1ccc(Cl)cc1)=N[C@@H](CC(=O)OC(C)(C)C)c1nnc(C)n1-2 [JQ1] + O=C(c1cc(Cc2n[nH]c(=O)c3ccccc23)ccc1F)N1CCN(C(=O)C2CC2)CC1 [Olaparib] (partner 8 µM)
0.34

Identify measured relative viability corresponding to Cc1sc2c(c1C)C(c1ccc(Cl)cc1)=N[C@@H](CC(=O)OC(C)(C)C)c1nnc(C)n1-2 [JQ1] + CC1(C)CCC(c2ccc(Cl)cc2)=C(CN2CCN(c3ccc(C(=O)NS(=O)(=O)c4ccc(N[C@H](CCN5CCOCC5)CSc5ccccc5)c(S(=O)(=O)C(F)(F)F)c4)cc3)CC2)C1 [Navitoclax] (partner 0.5 µM)
0.295

Identify measured relative viability corresponding to Cc1sc2c(c1C)C(c1ccc(Cl)cc1)=N[C@@H](CC(=O)OC(C)(C)C)c1nnc(C)n1-2 [JQ1] + C[C@@H](Oc1cc(-c2cnn(C3CCNCC3)c2)cnc1N)c1c(Cl)ccc(F)c1Cl [Crizotinib] (partner 1 µM)
0.133

Identify measured relative viability corresponding to Cc1sc2c(c1C)C(c1ccc(Cl)cc1)=N[C@@H](CC(=O)OC(C)(C)C)c1nnc(C)n1-2 [JQ1] + COc1cccc2cc(-c3nc([C@H]4CC[C@H](C(=O)O)CC4)n4ncnc(N)c34)[nH]c12 [OSI-027] (partner 0.5 µM)
0.192

Identify measured relative viability corresponding to Cc1sc2c(c1C)C(c1ccc(Cl)cc1)=N[C@@H](CC(=O)OC(C)(C)C)c1nnc(C)n1-2 [JQ1] + Nc1nc2[nH]cc(CCc3ccc(C(=O)N[C@@H](CCC(=O)O)C(=O)O)cc3)c2c(=O)[nH]1 [Pemetrexed] (partner 0.2 µM)
0.465

====

- Tested on: NCI-H1651
- test.method.notes: relative viability (nuclei count vs DMSO), 5 days (fraction); higher = more cells survive
- condition.label: first compound 158.11 µM
reported.property: relative viability
Number only, please.

Identify measured relative viability corresponding to O=C(O)CCCCC(CCSCc1ccccc1)SCc1ccccc1 (stereo not drawn) [CPI-613] + CC1(C)CCC(c2ccc(Cl)cc2)=C(CN2CCN(c3ccc(C(=O)NS(=O)(=O)c4ccc(N[C@H](CCN5CCOCC5)CSc5ccccc5)c(S(=O)(=O)C(F)(F)F)c4)cc3)CC2)C1 [Navitoclax] (partner 0.5 µM)
0.17

Identify measured relative viability corresponding to O=C(O)CCCCC(CCSCc1ccccc1)SCc1ccccc1 (stereo not drawn) [CPI-613] + CC(=O)Nc1cccc(-n2c(=O)n(C3CC3)c(=O)c3c(Nc4ccc(I)cc4F)n(C)c(=O)c(C)c32)c1 [Trametinib] (partner 0.02 µM)
0.783

Identify measured relative viability corresponding to O=C(O)CCCCC(CCSCc1ccccc1)SCc1ccccc1 (stereo not drawn) [CPI-613] + CC(C)C[C@H](NC(=O)[C@H](Cc1ccccc1)NC(=O)c1cnccn1)B(O)O [Bortezomib] (partner 0.002 µM)
0.914

Identify measured relative viability corresponding to O=C(O)CCCCC(CCSCc1ccccc1)SCc1ccccc1 (stereo not drawn) [CPI-613] + C[C@@H](Oc1cc(-c2cnn(C3CCNCC3)c2)cnc1N)c1c(Cl)ccc(F)c1Cl [Crizotinib] (partner 1 µM)
0.818

Identify measured relative viability corresponding to O=C(O)CCCCC(CCSCc1ccccc1)SCc1ccccc1 (stereo not drawn) [CPI-613] + CCNC(=O)c1noc(-c2cc(C(C)C)c(O)cc2O)c1-c1ccc(CN2CCOCC2)cc1 [Luminespib] (partner 0.01 µM)
0.185

Identify measured relative viability corresponding to O=C(O)CCCCC(CCSCc1ccccc1)SCc1ccccc1 (stereo not drawn) [CPI-613] + CS(=O)(=O)CCNCc1ccc(-c2ccc3ncnc(Nc4ccc(OCc5cccc(F)c5)c(Cl)c4)c3c2)o1 [Lapatinib] (partner 2 µM)
0.312

Identify measured relative viability corresponding to O=C(O)CCCCC(CCSCc1ccccc1)SCc1ccccc1 (stereo not drawn) [CPI-613] + Cc1nc(Nc2ncc(C(=O)Nc3c(C)cccc3Cl)s2)cc(N2CCN(CCO)CC2)n1 [Dasatinib] (partner 0.075 µM)
0.282

Identify measured relative viability corresponding to O=C(O)CCCCC(CCSCc1ccccc1)SCc1ccccc1 (stereo not drawn) [CPI-613] + O=C(c1cc(Cc2n[nH]c(=O)c3ccccc23)ccc1F)N1CCN(C(=O)C2CC2)CC1 [Olaparib] (partner 8 µM)
0.198
